- Tested on: Staphylococcus aureus
- assay-protocol: Antimicrobial activity against Staphylococcus aureus RDN1 harboring cloned pTZ2162-encoded QacBIII E320A mutant gene by agar dilution method
- Type: functional
observed-property: MIC
Please provide the amount together with its unit, number first.

Below is a list of molecules. For each, state its recorded MIC.
1. CC(=O)NCC(=O)O.N=C(N)c1ccc(/N=N/Nc2ccc(C(=N)N)cc2)cc1 [DIMINAZEN ACETURATE]
2. C[n+]1c2cc(N)ccc2cc2ccc(N)cc21.[Cl-]
3. O=C(O)c1cn(C2CC2)c2cc(N3CCNCC3)c(F)cc2c1=O

Given back:
512 µg/mL
1020 µg/mL
0.06 µg/mL
